Protocol notes: Plasma PK after single oral administration in solution, dog
Format: in vivo, Beagle Dog
Experimental setup: male, beagle, plasma; dog; single oral 4.0 mg/kg; solution in 5% ethanol/20% propylene glycol/45% PEG 300/30% 0.01 N HCl; mean ± SD, n=3

Compound structure string	Tmax [h]
CC(C)(C#Cc1ccc(-c2ccc(Cl)c3c(NS(C)(=O)=O)nn(CC(F)(F)F)c23)c([C@H](Cc2cc(F)cc(F)c2)NC(=O)Cn2nc(C(F)(F)F)c3c2C(F)(F)[C@@H]2C[C@H]32)n1)S(C)(=O)=O	10.7

----------
Protocol notes: PK after subcutaneous administration of solutions in rats
Type: in vivo, Wistar Han rat
Experimental setup: male, Wistar Han, rat, plasma, sc, 50 mg/kg, rat mean, n=3; 840 h; SC 50 mg/kg, 300 mg/mL in 15% water/85% PEG 300
Parameter: concentration at 840 h (nM)

Compound	Parameter	Measured value
CC(C)(C#Cc1ccc(-c2ccc(Cl)c3c(NS(C)(=O)=O)nn(CC(F)(F)F)c23)c([C@H](Cc2cc(F)cc(F)c2)NC(=O)Cn2nc(C(F)(F)F)c3c2C(F)(F)[C@@H]2C[C@H]32)n1)S(C)(=O)=O [Formula (Ia)]	concentration at 840 h	313

----------
Protocol notes: Plasma PK after single oral administration in solution, rhesus monkey
Assay type: in vivo
Experimental setup: male, plasma, single oral 4.0 mg/kg, solution in 5% ethanol/20% propylene glycol/45% PEG 300/30% 0.01 N HCl, mean ± SD, n=3

Compound structure string	Unit abbrev	Cmax
CC(C)(C#Cc1ccc(-c2ccc(Cl)c3c(NS(C)(=O)=O)nn(CC(F)(F)F)c23)c([C@H](Cc2cc(F)cc(F)c2)NC(=O)Cn2nc(C(F)(F)F)c3c2C(F)(F)[C@@H]2C[C@H]32)n1)S(C)(=O)=O	µM	29.4

----------
Protocol notes: PK after subcutaneous administration of solutions in rats
Assay type: in vivo, Wistar Han rat
Experimental setup: Wistar Han, rat, plasma, sc, 50 mg/kg, rat; SC 50 mg/kg; 125 mg/mL solution (w/w %: 27.51 water, 58.92 PEG 300, 11.48 sodium salt of Formula (Ia), 2.09 poloxamer 188); mean ± SD, n=3; read-out: C28d

Compound	concentration at 28 d (nM)
CC(C)(C#Cc1ccc(-c2ccc(Cl)c3c(NS(C)(=O)=O)nn(CC(F)(F)F)c23)c([C@H](Cc2cc(F)cc(F)c2)NC(=O)Cn2nc(C(F)(F)F)c3c2C(F)(F)[C@@H]2C[C@H]32)n1)S(C)(=O)=O [Formula (Ia)]	27.9

----------
Protocol notes: PK after subcutaneous administration of solutions in rats
Format: in vivo, Wistar Han rat
Experimental setup: male, Wistar Han, rat, plasma, sc, 50 mg/kg, rat #3; 1 h; SC 50 mg/kg, 300 mg/mL in 15% water/85% PEG 300
Parameter: concentration at 1 h (nM)

Molecule	Measured value
CC(C)(C#Cc1ccc(-c2ccc(Cl)c3c(NS(C)(=O)=O)nn(CC(F)(F)F)c23)c([C@H](Cc2cc(F)cc(F)c2)NC(=O)Cn2nc(C(F)(F)F)c3c2C(F)(F)[C@@H]2C[C@H]32)n1)S(C)(=O)=O [Formula (Ia)]	5.6

----------
Protocol notes: PK after subcutaneous administration of solutions in dogs
Type: in vivo, Beagle dog
Experimental setup: male, beagle, dog, plasma, sc, 12 mg/kg, dog #3; 168 h; SC 12 mg/kg, 400 mg/mL in 15% water/85% PEG 300
Parameter: concentration at 168 h (nM)

Compound structure string	Parameter	Measured value
CC(C)(C#Cc1ccc(-c2ccc(Cl)c3c(NS(C)(=O)=O)nn(CC(F)(F)F)c23)c([C@H](Cc2cc(F)cc(F)c2)NC(=O)Cn2nc(C(F)(F)F)c3c2C(F)(F)[C@@H]2C[C@H]32)n1)S(C)(=O)=O	concentration at 168 h	30.8

----------
Protocol notes: PK after subcutaneous administration of solutions in rats
Format: in vivo, Wistar Han rat
Experimental setup: male, Wistar Han, rat, plasma, sc, 50 mg/kg, rat #2; 8 h; SC 50 mg/kg, 300 mg/mL in 15% water/85% PEG 300

Compound	Unit abbrev	concentration at 8 h
CC(C)(C#Cc1ccc(-c2ccc(Cl)c3c(NS(C)(=O)=O)nn(CC(F)(F)F)c23)c([C@H](Cc2cc(F)cc(F)c2)NC(=O)Cn2nc(C(F)(F)F)c3c2C(F)(F)[C@@H]2C[C@H]32)n1)S(C)(=O)=O [Formula (Ia)]	nM	32.8

----------
Protocol notes: PK after subcutaneous administration of solutions in rats
Assay type: in vivo, Wistar Han rat
Experimental setup: male, Wistar Han, rat, plasma, sc, 50 mg/kg, rat #1; 8 h; SC 50 mg/kg, 300 mg/mL in 15% water/85% PEG 300
Method: Formulations containing the compound of Formula (Ia) were prepared as aqueous solutions or oral formulations and administered subcutaneously to rats, dogs, cynomolgus monkey, and/or rhesus monkey. A solution of the compound of Formula (Ia) in 10% ethanol, 13% water, and 77% PEG 200 (400 mg/mL) was prepared. The solution was administered subcutaneously to dogs at a dose of 12 mg/kg and rats at a dose of 50 mg/kg and the pharmacokinetic (PK) profile was determined. […]

Compound	concentration at 8 h
CC(C)(C#Cc1ccc(-c2ccc(Cl)c3c(NS(C)(=O)=O)nn(CC(F)(F)F)c23)c([C@H](Cc2cc(F)cc(F)c2)NC(=O)Cn2nc(C(F)(F)F)c3c2C(F)(F)[C@@H]2C[C@H]32)n1)S(C)(=O)=O [Formula (Ia)]	37 nM

----------
Protocol notes: PK after subcutaneous administration of solutions in dogs
Assay type: in vivo, Beagle dog
Experimental setup: male, beagle, dog, plasma, sc, 12 mg/kg, dog mean; 1.0 h; SC 12 mg/kg, 400 mg/mL in 15% water/85% PEG 300
Parameter: concentration at 1 h (nM)

Compound	Parameter	Measured value
CC(C)(C#Cc1ccc(-c2ccc(Cl)c3c(NS(C)(=O)=O)nn(CC(F)(F)F)c23)c([C@H](Cc2cc(F)cc(F)c2)NC(=O)Cn2nc(C(F)(F)F)c3c2C(F)(F)[C@@H]2C[C@H]32)n1)S(C)(=O)=O [Formula (Ia)]	concentration at 1 h	1.2

----------
Protocol notes: PK after subcutaneous administration of solutions in dogs
Format: in vivo, Beagle dog
Experimental setup: male, beagle, dog, plasma, sc, 12 mg/kg, dog #2; 3.0 h; SC 12 mg/kg, 400 mg/mL in 15% water/85% PEG 300

Compound structure string	concentration at 3 h
CC(C)(C#Cc1ccc(-c2ccc(Cl)c3c(NS(C)(=O)=O)nn(CC(F)(F)F)c23)c([C@H](Cc2cc(F)cc(F)c2)NC(=O)Cn2nc(C(F)(F)F)c3c2C(F)(F)[C@@H]2C[C@H]32)n1)S(C)(=O)=O	2.6 nM

----------
Protocol notes: PK after subcutaneous administration of solutions in rats
Format: in vivo, Wistar Han rat
Experimental setup: Wistar Han, rat, plasma, sc, 50 mg/kg, rat; SC 50 mg/kg; 300 mg/mL solution (w/w %: 23.2 water, 50.0 PEG 300, 25.7 Formula (Ia), 1.1 NaOH); mean ± SD, n=3; read-out: C168d
Parameter: concentration at 168 d (nM)

Compound structure string	Unit abbrev	Measured value
CC(C)(C#Cc1ccc(-c2ccc(Cl)c3c(NS(C)(=O)=O)nn(CC(F)(F)F)c23)c([C@H](Cc2cc(F)cc(F)c2)NC(=O)Cn2nc(C(F)(F)F)c3c2C(F)(F)[C@@H]2C[C@H]32)n1)S(C)(=O)=O	nM	12.8

----------
Protocol notes: PK after subcutaneous administration of solutions in rats
Format: in vivo, Wistar Han rat
Experimental setup: Wistar Han, rat, plasma, sc, 50 mg/kg, rat; SC 50 mg/kg; 150 mg/mL solution (w/w %: 27.92 water, 58.04 PEG 300, 13.47 Formula (Ia), 1.1 NaOH); mean ± SD, n=3

Compound structure string	Unit abbrev	Cmax
CC(C)(C#Cc1ccc(-c2ccc(Cl)c3c(NS(C)(=O)=O)nn(CC(F)(F)F)c23)c([C@H](Cc2cc(F)cc(F)c2)NC(=O)Cn2nc(C(F)(F)F)c3c2C(F)(F)[C@@H]2C[C@H]32)n1)S(C)(=O)=O	nM	809

----------
Protocol notes: PK after subcutaneous administration of solutions in dogs
Type: in vivo, Beagle dog
Experimental setup: male, beagle, dog, plasma, sc, 12 mg/kg, dog #2; 24.0 h; SC 12 mg/kg, 400 mg/mL in 15% water/85% PEG 300
Parameter: concentration at 24 h (nM)

Compound	Parameter	Measured value
CC(C)(C#Cc1ccc(-c2ccc(Cl)c3c(NS(C)(=O)=O)nn(CC(F)(F)F)c23)c([C@H](Cc2cc(F)cc(F)c2)NC(=O)Cn2nc(C(F)(F)F)c3c2C(F)(F)[C@@H]2C[C@H]32)n1)S(C)(=O)=O [Formula (Ia)]	concentration at 24 h	27.8

These entries and their values trace back to patent US12594267B2.
